Every entry's value here was drawn from patent US20240279318A1.

# experimental_target: T1, AFP158/HLA-A*02:01 complex (human)
# T1 construct: biotinylated on the BSP by BirA for ELISA and panning; also called biotinylated AFP158/HLA-A*02:01 complex; Bio-AFP158
# assay_details: SPR, scFv-mIgG2aFc from supernatant captured, complex as analyte
assay_metric: kon (M⁻¹ s⁻¹)
Dear colleague, please return just the value in M⁻¹ s⁻¹, with no unit written.

get_value(item= AS170036 VL2VH2 scFv-mIgG2aFc (Fc fusion, not shown: a dimerising Fc or GST) scFv: QSALTQPRSVSGSPGQSVTISCAGTSSDVGSENYVSWYQQHPGKAPKLLIYQVNKRASGIPDRFSGSKSGNTASLTISGLQAEDEADYYCASYRSSDHNIVFGGGTKLTVLGGGGSGGGGSGGGGSEVQLVESGGGLVQPGGSLRLSCTASGFTFSSYAMSWVRQAPGKGLEWVSTINSGTGSPYYADSVKGRFTISRDNSKNTLYLQMNSLRAEDTAMYYCAKNFFDGSWFLGPPAMDYWGQGTLVTVSS , readout=kon) returns 190000
